System: Mycosphaerella graminicola; Anamorph: Septoria tritici
Assay: Fungicidal activity: Leaf Blotch of Wheat (SEPTTR)
Assay type: in vivo
Details: Zymoseptoria tritici, 72 h; Low Volume (121.5 g/H), 3 Day Curative, wheat leaf blotch; read-out: SEPTTR 3 DC disease control
Description: Evaluation of Fungicidal Activity: Leaf Blotch of Wheat (Mycosphaerella graminicola; Anamorph: Septoria tritici; Bayer Code […]) Technical grades of materials were dissolved in acetone, which were then mixed with nine volumes of water containing 110 ppm Triton X-100. The fungicide solutions were applied onto wheat seedlings using an automated booth sprayer to run-off. […] All fungicides were evaluated using the aforementioned method for their activity vs. all target diseases, unless stated otherwise. […]
READOUT_TYPE: pest or weed control at 121.5 g/ha

Worked set:
smiles_entry=COc1ccnc(C(=O)N[C@H]2COC[C@H](CCC(C)C)[C@@H](C3CCCC3)[C@H](C)OC2=O)c1OCOC(C)=O readout_type="pest or weed control at 121.5 g/ha" value_reported="< 70%"
smiles_entry=COc1ccnc(C(=O)N[C@H]2COC[C@H](Cc3ccccc3)[C@@H](CCC(C)C)[C@H](C)OC2=O)c1OC(C)=O readout_type="pest or weed control at 121.5 g/ha" value_reported="> 70%"
smiles_entry=COc1ccnc(C(=O)N[C@H]2COC[C@H](CCC(C)C)[C@@H](C3CCCC3)[C@H](C)OC2=O)c1OCOC(=O)C(C)C readout_type="pest or weed control at 121.5 g/ha" value_reported="> 70%"
smiles_entry=COc1ccnc(C(=O)N[C@H]2COC[C@H](CCCc3ccccc3)[C@@H](Cc3ccccc3)[C@H](C)OC2=O)c1OCOC(C)=O readout_type="pest or weed control at 121.5 g/ha" value_reported="> 70%"
smiles_entry=COc1ccnc(C(=O)N[C@H]2COC[C@H](Cc3ccccc3)[C@@H](CCC(C)C)[C@H](C)OC2=O)c1OCOC(C)=O readout_type="pest or weed control at 121.5 g/ha" value_reported="> 70%"
smiles_entry=CCOCC(=O)OCOc1c(OC)ccnc1C(=O)N[C@H]1COC[C@H](Cc2ccc(Cl)cc2)[C@@H](C2CCCC2)[C@H](C)OC1=O readout_type="pest or weed control at 121.5 g/ha" value_reported="> 70%"

(Q) Check Mycosphaerella graminicola; Anamorph: Septoria tritici data and give pest or weed control at 121.5 g/ha for COc1ccnc(C(=O)N[C@H]2COC[C@H](Cc3ccccc3)[C@@H](CC(C)C)[C@H](C)OC2=O)c1OC(C)=O .
(A) > 70%

(Q) Check Mycosphaerella graminicola; Anamorph: Septoria tritici data and give pest or weed control at 121.5 g/ha for COc1ccnc(C(=O)N[C@H]2COC[C@H](Cc3ccccc3)[C@@H](C3CCCC3)[C@H](C)OC2=O)c1OCOC(C)=O .
(A) > 70%

(Q) Check Mycosphaerella graminicola; Anamorph: Septoria tritici data and give pest or weed control at 121.5 g/ha for CCOCC(=O)OCOc1c(OC)ccnc1C(=O)N[C@H]1COC[C@H](CC2CC2)[C@@H](c2ccccc2)[C@H](C)OC1=O .
(A) > 70%

(Q) Check Mycosphaerella graminicola; Anamorph: Septoria tritici data and give pest or weed control at 121.5 g/ha for CCC[C@H]1COC[C@H](NC(=O)c2nccc(OC)c2OCOC(=O)C(C)C)C(=O)O[C@@H](C)[C@@H]1c1ccccc1 .
(A) > 70%

(Q) Check Mycosphaerella graminicola; Anamorph: Septoria tritici data and give pest or weed control at 121.5 g/ha for COc1ccnc(C(=O)N[C@H]2COC[C@H](Cc3ccc(C(F)(F)F)cc3)[C@@H](Cc3ccc(F)cc3)[C@H](C)OC2=O)c1OCOC(=O)C(C)C .
(A) < 70%

(Q) Check Mycosphaerella graminicola; Anamorph: Septoria tritici data and give pest or weed control at 121.5 g/ha for COc1ccnc(C(=O)N[C@H]2COC[C@H](Cc3ccccc3)[C@@H](COc3ccccc3)[C@H](C)OC2=O)c1OCOC(C)=O .
(A) > 70%

(Q) Check Mycosphaerella graminicola; Anamorph: Septoria tritici data and give pest or weed control at 121.5 g/ha for COc1ccnc(C(=O)N[C@H]2COC[C@H](Cc3ccc(Cl)cc3)[C@@H](C3CCCC3)[C@H](C)OC2=O)c1OC(C)=O .
(A) > 70%

Every entry's value here was drawn from patent US9955691B2.
